Documented Percent Control across a set of compounds
Tested on: FAK
Construct: gene PTK2
CONDITIONS_USED: Compound Concentration (nM):1000;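 note: KINOMEscan scanMAX binding as percent activity remaining versus control; lower means stronger binding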

COMPOUND	Percent Control [%]
Cl.c1ccc(Cc2nc3ccc(Nc4ncnc5ccccc45)cc3[nH]2)cc1 [GR269666A]	100
COc1cc2ncnc(Nc3ccc4c(cnn4Cc4ccccc4)c3)c2cc1OC.Cl [GW282449A]	100
COc1cc(C=NNc2ncnc3c2cnn3-c2ccccc2)ccc1O [GW513184X]	100
NS(=O)(=O)c1ccc(N/N=C2\C(=O)Nc3ccc(Cl)cc32)cc1 [GW280670X]	100
Cl.O=C(O[C@H]1CN[C@H](C#Cc2cc3ncnc(Nc4ccc5c(cnn5Cc5ccccc5)c4)c3s2)C1)N1CCOCC1 [GSK200398A]	96
COc1ccccc1-c1cc(/C=C2\C(=O)Nc3ncc(Br)cc32)cc(Br)c1O [GW442130X]	97
COc1ccc2cc(-c3c(-c4ccncc4)nc(-c4ccc(S(C)(=O)=O)cc4C)n3C)ccc2c1	85
CCn1c(-c2nonc2N)nc2c(C#CC(C)(C)O)nc(OCCNC)cc21.Cl	100
C/C(Nc1ccc(S(N)(=O)=O)cc1)=C1/C(=O)Nc2ccccc21 [GW335962X]	93
NS(=O)(=O)c1ccc(Nc2ncc(-c3ccccc3)o2)cc1 [GW572399X]	100
COc1cccc(-n2ncc3c(N/N=C/c4ccncc4)ncnc32)c1 [GW784752X]	100

###

Documented Percent Control across a set of molecules
Tested on: SGK3
CONDITIONS_USED: Compound Concentration (nM):1000
RESULT_TYPE: Percent Control (%)

MOLECULE	TGT	UNIT_NAME	EXPERIMENTAL_VALUE
COc1ccc2c(-c3ccnc(Nc4cccc(OC(F)(F)F)c4)n3)cnn2n1 [GW810372X]	SGK3	%	79
CN1CCN(C(=O)c2ccc(NC(=O)Nc3ccc(N(C)c4ccnc(Nc5ccc(CS(C)(=O)=O)cc5)n4)cc3)cc2)CC1.Cl [GW830263A]	SGK3	%	79
Cl.c1ccc(Cc2nc3ccc(Nc4ncnc5ccccc45)cc3[nH]2)cc1 [GR269666A]	SGK3	%	81

###

Documented Percent Control across a set of compounds
Test system: NEK10
CONDITIONS_USED: Compound Concentration (nM):1000

COMPOUND	Percent Control (%)
COc1cc(C)c(N(C)C(=O)CN(C)C)cc1Nc1nc(Nc2cccc(F)c2C(N)=O)c2cc[nH]c2n1	52
Cl.O=S1CCN(Cc2ccc(-c3ccc4ncnc(Nc5ccc(OCc6ccccc6)c(F)c5)c4c3)o2)CC1 [GW576924A]	100
O=C1Nc2ccc(C(=O)c3ccco3)cc2C1=Cc1cc(Cl)c(O)c(Cl)c1 [GW406108X]	3.3
COc1cc(N2CCN(C(C)C)CC2)ccc1Nc1nc(Nc2ccc(F)cc2C(=O)NC[C@@H](O)CO)c2cc[nH]c2n1 [GSK1392956A]	34

###

Documented Percent Control across a set of compounds
System: HUNK
CONDITIONS_USED: Compound Concentration (nM):1000
RESULT_TYPE: Percent Control (%)

COMPOUND	RESULT_TYPE	UNIT_NAME	EXPERIMENTAL_VALUE
CC(C)COC(=O)c1ccc2c(c1)/C(=C/Nc1ccc(S(N)(=O)=O)cc1)C(=O)N2 [GW416981X]	Percent Control	%	100
Cl.O=C(Nc1ccc(Oc2ccc3[nH]c(NC(=O)c4ccccc4)nc3c2)cc1)Nc1cc(C(F)(F)F)ccc1F [GW709042A]	Percent Control	%	90
COc1cccc(-n2ncc3c(N/N=C/c4ccncc4)ncnc32)c1 [GW784752X]	Percent Control	%	95
COc1ccc2cc(-c3c(-c4ccncc4)nc(-c4ccc(S(C)(=O)=O)cc4C)n3C)ccc2c1	Percent Control	%	100
NS(=O)(=O)c1ccc(N/N=C2\C(=O)Nc3ccc(Cl)cc32)cc1 [GW280670X]	Percent Control	%	100
